- System: MR CoNS
- test-description: In vitro MIC, 2010 surveillance isolates
- Format: cell-based, Coagulase-Negative Staphylococcus
- condition-parameters: L. Amer; CLSI breakpoints
A collection of molecules and their measured % R (resistance)
Just the number please, in %, no unit attached.

Below are worked cases with known answers.
molecule	% R (resistance) (%)
C[C@H]1COc2c(N3CCN(C)CC3)c(F)cc3c(=O)c(C(=O)O)cn1c23 [Levofloxacin]	57.8
CO/N=C(\C(=O)N[C@@H]1C(=O)N2C(C(=O)O)=C(CSc3nc(=O)c(=O)[nH]n3C)CS[C@H]12)c1csc(N)n1 [Ceftriaxone]	100
CN[C@H](CC(C)C)C(=O)N[C@H]1C(=O)N[C@@H](CC(N)=O)C(=O)N[C@H]2C(=O)N[C@H]3C(=O)N[C@H](C(=O)N[C@H](C(=O)O)c4cc(O)cc(O)c4-c4cc3ccc4O)[C@H](O)c3ccc(c(Cl)c3)Oc3cc2cc(c3O[C@@H]2O[C@H](CO)[C@@H](O)[C@H](O)[C@H]2O[C@H]2C[C@](C)(N)[C@H](O)[C@H](C)O2)Oc2ccc(cc2Cl)[C@H]1O [Vancomycin]	0

// below: % R (resistance) requested for another molecule
Input C[C@H]1c2cccc(O)c2C(=O)C2=C(O)[C@]3(O)C(=O)C(C(N)=O)=C(O)[C@@H](N(C)C)[C@@H]3[C@@H](O)[C@@H]21 [Doxycycline] . Output % R (resistance): 0.3
